Assay summary: Primary qHTS for inhibitors of nuclear receptor binding SET domain protein 2 (NSD2) in an RCH-ACV wild type WT cells (2C) (AID 1645877); further: nearly all actives have a fitted effect of over 70% in size
Settings: RCH-ACV (leukaemia line) NSD2 WT (2C) viability, CellTiter-Glo, 72 h; series mostly up to 44.9 µM
Records with an inconclusive call do not appear. Calls of active or inactive are those of the source. The call rests on the fitted dose curve; in most records, active means well fitted inhibition curve with a large enough effect; inconclusive means small, poorly fitted or top-dose-only effect; inactive means no such curve, though single readings can be large or run the other way. Where a SMILES comes first, the peptide text is derived from it. [ ]: non-standard residue; d: D form. ξ: configuration not given here. ξLac(3-iPr) = CC(C)CC(O)C(=O)O; NMeV = CN[CH](C(=O)O)C(C)C; NMeA = CN[CH](C)C(=O)O; βAla = NCCC(=O)O
Outcomes you can answer with include only these: yes (1) = active, no (0) = inactive

Example entries begin here.
>>> assigned_category("COc1ccc2c3c4n(c2c1)[C@@H](C=C(C)C)OOC(C)(C)C[C@@H]4N1C(=O)[C@@H]2CCCN2C(=O)[C@]1(O)[C@H]3OCC=C(C)C")
"no (0)"
>>> assigned_category("OCc1nnc2n1-c1ccc(Cl)cc1C(c1ccccc1Cl)=NC2")
"no (0)"
>>> assigned_category("CCC(C)C1NC(=O)C2CCCN2C(=O)C(CC(C)C)OC(=O)CCNC(=O)C(C)N(C)C(=O)C(C(C)C)N(C)C1=O (configuration not stated) (cyclo([ξLac(3-iPr)]PI[NMeV][NMeA][βAla]); configuration not given here)")
"yes (1)"
>>> assigned_category("O=C(NCCN1CCC2(CC1)C(=O)NCN2c1cccc(F)c1)c1ccc(F)c(F)c1")
"yes (1)"
>>> assigned_category("C/C=C1/CN2CC[C@]34C(=Nc5ccccc53)[C@@H]2C[C@@H]1[C@H]4C(=O)OC")
"no (0)"
>>> assigned_category("C=C(C)C(=O)O[C@H]1[C@@H]2[C@H](C)C(=O)O[C@@H]2C[C@@H](C)[C@@H]2C=CC(=O)[C@]21C")
"yes (1)"

Q. Fill in: this test's call for C=C1[C@@H](C)C2[C@H](Cc3ccccc3)NC(=O)[C@@]23C(/C=C/C[C@H](C)C[C@@](C)(O)/C=C/[C@@H]3OC(C)=O)[C@@H]1O (some centres not stated) is ___
A. yes (1)

###

Assay summary: Cytotoxicity counterscreen for inhibitors of SARS-CoV-2 cell entry (AID 1645845); further: nearly all actives have a fitted effect of over 50% in size
Settings: cell viability (SARS-CoV-2 entry assay cells); series mostly up to 57.1 µM
Records with an inconclusive call do not appear. The source made the active and inactive calls. Calls follow the shape of the full dose curve.
Permitted responses: y = active, n = inactive

>>> assigned_category("CC(C)[N+]1(C)[C@@H]2CC[C@H]1CC(OC(=O)C(CO)c1ccccc1)C2 (stereo not given in full)")
"n"
>>> assigned_category("CC#CCn1c(N2CCC[C@@H](N)C2)nc2c1c(=O)n(Cc1nc(C)c3ccccc3n1)c(=O)n2C")
"n"
>>> assigned_category("COc1cc(SC)ccc1C(=O)N1CCC(Cc2ccccc2)CC1")
"n"
>>> assigned_category("COc1cc(NC(=O)c2ccc(-c3ccc(Cl)cc3)o2)cc(OC)c1")
"n"
>>> assigned_category("c1cc(N[C@@H]2CCNC2)nc(-c2cnc3ccc(-c4cn[nH]c4)cn23)c1")
"y"
>>> assigned_category("CC1(C)OC(=O)C(OCC2CC2)=C1c1ccc(S(C)(=O)=O)cc1")
"n"
>>> assigned_category("Cc1ccc2c(=O)c3cccc(CC(=O)O)c3oc2c1C")
"n"
>>> assigned_category("CC(C)NC[C@@H](O)COc1cccc2ccccc12")
"n"

Q. Please share the test call associated with O=C1c2c(O)cc(O)cc2OC(c2ccc(O)c(O)c2)C1O (stereo not given) .
A. n

Q. Fill in: this test's call for COc1cc(Nc2ncc(F)c(Nc3ccc4c(n3)N(COP(=O)(O)O)C(=O)C(C)(C)O4)n2)cc(OC)c1OC is ___
A. n
